Below, each entry is listed alongside its reported log10 of IC50.
experimental-system: pEGFR (Tyr1068) in PC-9 cells (Ex19Del) (Homo sapiens (Human), UniProt P00533, DEL746-750)
Sequence (P00533 other isoform, or with tags, fused parts or gaps del 746-750): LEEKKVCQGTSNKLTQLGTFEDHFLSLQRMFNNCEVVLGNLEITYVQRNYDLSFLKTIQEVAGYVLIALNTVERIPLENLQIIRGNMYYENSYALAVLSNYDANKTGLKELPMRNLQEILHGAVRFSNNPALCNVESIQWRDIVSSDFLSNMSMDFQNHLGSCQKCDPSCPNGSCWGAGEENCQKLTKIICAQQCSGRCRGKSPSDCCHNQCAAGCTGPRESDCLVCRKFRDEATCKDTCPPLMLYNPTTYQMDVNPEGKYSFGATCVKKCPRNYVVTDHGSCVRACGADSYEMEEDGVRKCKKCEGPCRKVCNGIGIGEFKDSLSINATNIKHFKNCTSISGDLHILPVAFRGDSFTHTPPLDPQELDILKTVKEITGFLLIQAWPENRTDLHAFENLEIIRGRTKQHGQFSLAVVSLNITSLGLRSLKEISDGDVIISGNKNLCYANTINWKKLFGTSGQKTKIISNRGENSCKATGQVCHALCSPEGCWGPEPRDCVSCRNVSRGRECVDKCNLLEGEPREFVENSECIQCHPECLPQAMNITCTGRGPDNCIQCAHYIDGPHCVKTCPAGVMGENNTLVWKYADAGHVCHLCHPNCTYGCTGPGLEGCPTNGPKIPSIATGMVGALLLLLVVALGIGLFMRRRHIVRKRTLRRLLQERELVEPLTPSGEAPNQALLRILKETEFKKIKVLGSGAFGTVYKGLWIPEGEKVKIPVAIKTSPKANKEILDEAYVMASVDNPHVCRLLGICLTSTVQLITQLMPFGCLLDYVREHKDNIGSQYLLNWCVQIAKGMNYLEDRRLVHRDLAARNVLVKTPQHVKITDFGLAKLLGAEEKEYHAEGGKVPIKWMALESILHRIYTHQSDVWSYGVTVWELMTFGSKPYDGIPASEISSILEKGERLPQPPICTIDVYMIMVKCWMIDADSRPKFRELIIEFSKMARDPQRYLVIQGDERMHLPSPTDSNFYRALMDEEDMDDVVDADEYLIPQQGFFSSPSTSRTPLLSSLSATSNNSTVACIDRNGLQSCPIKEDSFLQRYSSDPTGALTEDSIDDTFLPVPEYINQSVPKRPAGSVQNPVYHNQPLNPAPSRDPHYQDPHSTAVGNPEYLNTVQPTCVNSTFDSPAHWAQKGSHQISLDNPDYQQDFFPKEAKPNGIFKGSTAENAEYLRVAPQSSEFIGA
measurement-description: PC-9 pEGFR AlphaLISA assay
condition-description: 4 hours incubation, p-EGFR (Tyr1068) AlphaLISA, read-out: Ext pEGFR_PC-9 Ex19Del IC50
Please keep in mind that the values are log10 of IC50 expressed in nM.

Worked set:
[[record]]
compound = "COc1cc2ncnc(-c3cn(C)nc3-c3c(F)cccc3F)c2nc1NC(=O)[C@]12C[C@H]1CN(C)C2 (single isomer, unassigned)"
assay_metric = "log10 of IC50"
assay_result = 1.37

[[record]]
compound = "CCOc1cc2ncnc(-c3cn(C4CC4)nc3-c3ccccc3)c2cc1[C@@H](C)O (single isomer, unassigned)"
assay_metric = "log10 of IC50"
assay_result = 0.40


Query compound follows.
QUERY: May I ask what log10 of IC50 has been recorded for "CCn1cc(C(=O)Nc2cc3c(-c4cn(C)nc4-c4ccccc4)ncnc3cc2OC)cn1" ?
RESULT: 0.23

====

experimental-system: EGFR L858R (Homo sapiens (Human), UniProt P00533, L858R)
Sequence (P00533 25-1210 L858R): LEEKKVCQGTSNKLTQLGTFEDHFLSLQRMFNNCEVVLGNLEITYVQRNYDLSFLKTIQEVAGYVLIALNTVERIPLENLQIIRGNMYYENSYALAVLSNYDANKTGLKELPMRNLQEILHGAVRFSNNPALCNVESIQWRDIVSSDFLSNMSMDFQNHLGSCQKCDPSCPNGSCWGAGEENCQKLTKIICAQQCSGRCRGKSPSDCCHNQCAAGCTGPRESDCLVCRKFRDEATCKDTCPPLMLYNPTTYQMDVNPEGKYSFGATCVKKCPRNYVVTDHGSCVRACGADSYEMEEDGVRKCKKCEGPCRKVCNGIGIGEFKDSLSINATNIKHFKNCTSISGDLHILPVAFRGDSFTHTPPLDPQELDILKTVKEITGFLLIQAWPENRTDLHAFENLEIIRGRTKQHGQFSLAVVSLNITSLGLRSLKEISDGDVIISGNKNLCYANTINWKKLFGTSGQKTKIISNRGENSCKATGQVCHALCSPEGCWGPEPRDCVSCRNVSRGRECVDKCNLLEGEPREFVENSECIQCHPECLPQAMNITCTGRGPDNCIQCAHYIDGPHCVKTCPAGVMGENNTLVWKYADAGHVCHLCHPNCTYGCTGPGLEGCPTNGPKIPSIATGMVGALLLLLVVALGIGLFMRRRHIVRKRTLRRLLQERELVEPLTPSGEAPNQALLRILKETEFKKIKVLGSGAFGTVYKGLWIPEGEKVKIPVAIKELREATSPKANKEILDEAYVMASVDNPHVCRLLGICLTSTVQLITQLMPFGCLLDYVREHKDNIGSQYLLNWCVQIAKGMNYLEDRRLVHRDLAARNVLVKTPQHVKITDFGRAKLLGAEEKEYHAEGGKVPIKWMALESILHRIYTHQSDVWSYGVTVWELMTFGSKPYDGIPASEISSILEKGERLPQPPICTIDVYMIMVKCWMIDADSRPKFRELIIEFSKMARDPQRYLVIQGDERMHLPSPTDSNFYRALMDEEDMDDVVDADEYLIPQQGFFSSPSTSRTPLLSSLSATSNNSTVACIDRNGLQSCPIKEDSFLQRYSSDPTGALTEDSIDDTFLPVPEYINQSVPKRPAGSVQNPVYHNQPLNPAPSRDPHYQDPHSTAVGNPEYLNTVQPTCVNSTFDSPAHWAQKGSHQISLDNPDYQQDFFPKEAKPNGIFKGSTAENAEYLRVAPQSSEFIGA
measurement-description: Biochemical EGFR inhibition assay, EGFR L858R
condition-description: Caliper mobility shift; 1.0 mM ATP or ATP Km; read-out: Enz EGFR_L858R IC50
Recorded measurements of pIC50, one per entry
Field pIC50 (float): negative decimal logarithm of the concentration in molar.

Here is how some compounds turned out for pIC50.
[[record]]
compound = "COc1cc2ncnc(-c3cn(C)nc3-c3ccccc3)c2cc1NC(=O)C1(CN(C)C)CC1 [Example 189]"
assay_metric = "pIC50"
assay_result = 8.40

[[record]]
compound = "CCOc1cc2ncnc(-c3cn(C)nc3-c3ccccc3)c2nc1NC(=O)[C@@]12COC[C@@H]1C2 (single isomer, unassigned) [Example 380]"
assay_metric = "pIC50"
assay_result = 8.60

[[record]]
compound = "COc1cc2ncnc(-c3cn(C)nc3-c3ccccc3)c2cc1N1CC[C@@H](F)[C@H](O)C1 (single isomer, unassigned) [Example 173]"
assay_metric = "pIC50"
assay_result = 8.05


QUERY: Could you tell me which pIC50 is on file for COc1cc2ncnc(-c3cn(C)nc3-c3ccccc3)c2nc1NC(=O)[C@]12C[C@H]1CN(C)C2 (single isomer, unassigned) [Example 393] ?
RESULT: 8.68

QUERY: Same lookup for COc1cc2ncnc(-c3cn(C)nc3-c3ccc(F)cc3)c2nc1NC(=O)[C@]12COC[C@H]1C2 (single isomer, unassigned) [Example 381] , please.
RESULT: 8.72

QUERY: And for CN(C)C12CC(C(=O)Nc3nc4c(-c5cn(C)nc5-c5ccc(F)cc5)ncnc4cc3OC3CC3)(C1)C2 [Example 461] ?
RESULT: 7.90

====

Below: a set of entries, each annotated with reported pIC50.
experimental-system: pEGFR (Tyr1068) in PC-9 cells (Ex19Del) (Homo sapiens (Human), UniProt P00533, DEL746-750)
measurement-description: PC-9 pEGFR AlphaLISA assay
condition-description: 4 hours incubation, p-EGFR (Tyr1068) AlphaLISA, read-out: Ext pEGFR_PC-9 Ex19Del IC50
Here pIC50 is given on a logarithmic scale as minus log10 of the concentration in mol/L.

These solved cases illustrate the format of a correct answer.
[[record]]
compound = "CCCn1cc(-c2ncnc3cc(OC)c(NC(=O)c4ccc(C5CC5)nc4)cc23)c(-c2ccccc2)n1 [Example 301]"
assay_metric = "pIC50"
assay_result = 9.10

[[record]]
compound = "COc1cc2ncnc(-c3cn(C)nc3-c3ccccc3)c2nc1O[C@H](C)c1nnc(C)o1 [Example 38]"
assay_metric = "pIC50"
assay_result = 7.59

[[record]]
compound = "COc1cc2ncnc(-c3cn(C)nc3-c3ccccc3)c2cc1NC(=O)c1cncnc1 [Example 193]"
assay_metric = "pIC50"
assay_result = 8.54

[[record]]
compound = "COc1cc2ncnc(-c3cn(C)nc3-c3ccccc3)c2cc1OC(=O)N1C(C)CN(C)C[C@H]1C (stereo in doubt) [Example 90]"
assay_metric = "pIC50"
assay_result = 7.50

[[record]]
compound = "COc1cc2ncnc(-c3cn(C)nc3-c3ccccc3)c2cc1NC(=O)[C@]1(C)CCCO1 (single isomer, unassigned) [Example 258]"
assay_metric = "pIC50"
assay_result = 8.38


QUERY: For the compound COc1cc2ncnc(-c3cn(C)nc3-c3ccccc3)c2nc1-c1ccc2c(c1)CN(C)C2=O [Example 153] , what pIC50 is on record?
RESULT: 9.05

QUERY: Also COc1cc2ncnc(-c3cn(C)nc3-c3ccccc3)c2cc1N1CC2(COC2)C1 [Example 161] ?
RESULT: 8.09

Value source: patent US20250236608A1
